Cited source: PubChem BioAssay

- subject.of.test: Luciferin 4-monooxygenase (Photinus pyralis) (UniProt P08659)
- Sequence (P08659 whole entry, looked up): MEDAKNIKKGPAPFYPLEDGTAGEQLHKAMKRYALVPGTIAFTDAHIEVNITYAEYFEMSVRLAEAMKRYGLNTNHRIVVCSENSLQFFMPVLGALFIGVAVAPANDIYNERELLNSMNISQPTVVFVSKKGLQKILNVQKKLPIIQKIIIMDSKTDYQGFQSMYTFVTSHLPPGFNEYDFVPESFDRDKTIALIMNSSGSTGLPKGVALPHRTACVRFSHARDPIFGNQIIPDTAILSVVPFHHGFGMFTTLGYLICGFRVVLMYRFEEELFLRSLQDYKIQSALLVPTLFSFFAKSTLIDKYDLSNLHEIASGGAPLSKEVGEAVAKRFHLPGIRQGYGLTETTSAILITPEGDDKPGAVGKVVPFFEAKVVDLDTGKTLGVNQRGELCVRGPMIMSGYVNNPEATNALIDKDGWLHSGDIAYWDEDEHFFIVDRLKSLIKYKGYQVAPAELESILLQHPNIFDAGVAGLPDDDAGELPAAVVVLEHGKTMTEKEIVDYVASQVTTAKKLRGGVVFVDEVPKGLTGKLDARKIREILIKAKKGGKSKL
- experiment.description: firefly luciferase enzyme inhibitors, primary screen, biochemical, luminescence, purified enzyme, 2006 set (AID 1141);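 note: cell-free assay with purified firefly luciferase at 100 ng per well in PBS; test concentration not given here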
- settings: SteadyGlo luminescence, 30 min, higher = more signal, called active from +8 up or from −8 down
Active and inactive are the calls of the source.
measured.property: z-score

compound	subject.of.test	z-score
COCCOC(=O)N1C(=O)[C@@]2(c3cc(C#CCCO)ccc31)[C@H](C(=O)N1CCN(c3ncccn3)CC1)[C@H]1C(=O)O[C@H](c3ccccc3)[C@H](c3ccccc3)N1[C@@H]2c1ccccc1OCCO	Luciferin 4-monooxygenase (Photinus pyralis) (UniProt P08659)	1.23 (inactive)

Which measured z-score value corresponds to COCCOC(=O)N1C(=O)[C@@]2(c3cc(C#CC4=CCCCC4)ccc31)[C@H](C(N)=O)[C@H]1C(=O)O[C@H](c3ccccc3)[C@H](c3ccccc3)N1[C@@H]2c1ccc(OCCO)cc1 ?
-1.8 (inactive)

Which measured z-score value corresponds to [N-]=[N+]=NCc1ccccc1[C@@H]1OC(c2ccc(OCCCO)cc2)=N[C@]1(Cc1ccccc1N=[N+]=[N-])C(=O)N1CCOCC1 ?
-1.52 (inactive)

Which measured z-score value corresponds to CN1C(=O)C2C=CC(C(O)c3cccs3)N(Nc3ccccc3)C2C1=O (stereo unspecified) ?
-0.0014 (inactive)

Which measured z-score value corresponds to COc1ccc([Si](C)(C)[C@H]2[C@H](CCO)O[C@@]3(C(=O)N(C)c4c(Br)cc(C)cc43)[C@@H]2C)cc1 ?
0.481 (inactive)

Which measured z-score value corresponds to COc1ccc(C(=O)Nc2ccc(CN3C(=O)[C@@]4(O[C@@H](CCO)[C@H]([Si](C)(C)c5ccc(OC)cc5)[C@H]4C)c4ccccc43)cc2)cc1 ?
-0.555 (inactive)

====

- experiment.description: PSAC antagonists in infected red cells, primary screen, cell-based, P. falciparum Indochina, OD700, 2 h (AID 1155);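 note: lysis reports solute entry through the parasite surface anion channel PSAC; channel blockers reduce lysis of infected cells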
- settings: P. falciparum Indochina infected erythrocytes, osmotic lysis OD700; higher = more signal, called active from +8 up or from −8 down
measured.property: z-score
API doc: respond with a numeric literal and nothing else, no unit.

Solved entries:
> print(dat)
                                   compound  measured.property  endpoint.result
1  C=CCNC(=O)[C@H]1[C@@H]2C(=O)O[C@@H](c3ccccc3)[C@@H](c3ccccc3)N2[C@@H](c2ccc(OCCO)cc2)[C@]12C(=O)Nc1ccc(C#CC3=CCCCC3)cc12            z-score             1.66
2  CC(C)C(CO)N1C(=O)[C@@H]2[C@H]3C(=O)OCC=C[C@H]3OC23C=CCN(C(C)C)C(=O)[C@@H]13 (some centres not stated)            z-score            0.139
3  CCCCc1cn(C[C@H](Cc2ccccc2)NC(=O)N[C@H](CO)CCc2oc(C(C)=O)c(C(=O)OC)c2C(=O)OC)nn1            z-score           -0.983
4  C=CCNC(=O)[C@H]1[C@@H]2C(=O)O[C@@H](c3ccccc3)[C@@H](c3ccccc3)N2[C@@H](c2ccccc2OCCO)[C@]12C(=O)Nc1ccc(C#CC3=CCCCC3)cc12            z-score             2.25
5  COc1ccc(C(=O)Nc2ccc(CN3C(=O)[C@@]4(O[C@@H](CCO)[C@H]([Si](C)(C)c5ccc(OC)cc5)[C@H]4C)c4ccccc43)cc2)cc1            z-score             13.2
6  C=CC[C@]1(C(=O)NCCCOC)N=C(c2ccc(OCCCO)cc2)O[C@H]1c1ccccc1N=[N+]=[N-]            z-score             32.2

Which measured z-score value corresponds to CC(C)(C)OC(=O)CC[C@@]12N=C(c3ccc(OCCCO)cc3)O[C@@H]1c1ccccc1N(CCS(=O)(=O)c1ccccc1)C2=O ?
27.6

====

- experiment.description: PSAC antagonists in infected red cells, primary screen, cell-based, P. falciparum Indochina, OD700, 18 h (AID 1157)
- settings: P. falciparum Indochina infected erythrocytes, osmotic lysis OD700, 18 h; higher = more signal, called active from +8 up or from −8 down
The source made the active and inactive calls.
measured.property: z-score

Which measured z-score value corresponds to O=C1C[C@]2(c3ccc([N+](=O)[O-])cc3)C(=O)N(CCN3CCOCC3)c3cc(CO)ccc3[C@H]2N1C1CCCCC1 ?
-0.507 (inactive)

Which measured z-score value corresponds to COCCOC(=O)N1C(=O)[C@@]2(c3cc(C#CC4=CCCCC4)ccc31)[C@H](C(=O)Nc1nc3ccccc3s1)[C@H]1C(=O)O[C@H](c3ccccc3)[C@H](c3ccccc3)N1[C@@H]2c1ccc(OCCO)cc1 ?
1.59 (inactive)

Which measured z-score value corresponds to CC(C)(C)OC(=O)CC[C@@]12N=C(c3ccc(OCCCO)cc3)O[C@@H]1c1ccccc1N(CCS(=O)(=O)c1ccccc1)C2=O ?
8.22 (active)

Which measured z-score value corresponds to COc1cc2c(cc1OC)CN(C(=O)[C@H]1[C@@H]3C(=O)O[C@@H](c4ccccc4)[C@@H](c4ccccc4)N3[C@@H](c3ccc(O)cc3)[C@]13C(=O)Nc1ccc(C#CCNC(N)=O)cc13)CC2 ?
0.335 (inactive)

Which measured z-score value corresponds to C=CCC(OC(C)=O)[C@@H]1[C@@H](N(Cc2ccc(-c3cccc(C(F)(F)F)c3)o2)C(=O)c2ccc(-c3ccccc3)cc2)c2cc(OCCCO)ccc2N1C(=O)c1ccc(-c2ccccc2)cc1 (stereo partly specified) ?
0.508 (inactive)

Which measured z-score value corresponds to CCCC=C(CCC)[C@@H](NC(=O)Oc1ccc(F)cc1)c1ccc(C(=O)OC)cc1 ?
1.35 (inactive)

Which measured z-score value corresponds to CC(C)(C)OC(=O)CC[C@@]1(C(=O)NCC(O)CO)N=C(c2ccc(OCCCO)cc2)O[C@@H]1c1ccccc1N=[N+]=[N-] (stereo partly specified) ?
7.71 (inactive)

Which measured z-score value corresponds to COC(=O)[C@@]1(Cc2ccccc2)[C@H]2c3cc(C(=O)N(C)C)n(CCSCCO)c3C[C@H]2CN1C(=O)c1ccccc1 ?
0.496 (inactive)

Which measured z-score value corresponds to CCCCC(O)C1C=CC2C(=O)N(c3ccccc3)C(=O)C2N1Nc1ccccc1F (stereo unspecified) ?
1.19 (inactive)

Which measured z-score value corresponds to CCOC1=C2C(CN(S(=O)(=O)c3ccc(C)cc3)C2c2ccc(C)cc2)C2C(=O)N(c3ccccc3)C(=O)C2C1 (stereo unspecified) ?
0.855 (inactive)

Which measured z-score value corresponds to CCCCCN1CC=CC23O[C@@H]4/C=C\CCCOC(=O)C4[C@H]2C(=O)N(CCCO)[C@@H]3C1=O (stereo partly specified) ?
-0.678 (inactive)

Which measured z-score value corresponds to CCOC(=O)C[C@H]1[C@H](OC(=O)c2ccc(C(=O)c3ccccc3)cc2)[C@@H](NC(=O)c2ccc(-c3ccccc3)cc2)c2cc(OCCCO)ccc2N1C(=O)c1ccccc1 ?
-0.16 (inactive)

Which measured z-score value corresponds to CCCCCN1CC=CC23O[C@@H]4/C=C\CCCOC(=O)C4[C@H]2C(=O)N(C(CO)C(C)C)[C@@H]3C1=O (stereo partly specified) ?
0.0866 (inactive)

====

- experiment.description: MM1S myeloma cell viability, profiling panel, resazurin fluorescence, basal, 24 h, PK04 Diversity Set (AID 1174);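 note: MM1S multiple myeloma cell line; test concentration not given here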
- settings: higher = more signal, called active from +8 up or from −8 down
Give criterion met when the value for z-score is at least -0.5. Give criterion not met when it is less.

compound	group.label
COCCOC(=O)N1C(=O)[C@@]2(c3cc(C#Cc4ccc(OC)cc4)ccc31)[C@H](c1ccccc1OCCO)N1[C@H](c3ccccc3)[C@H](c3ccccc3)OC(=O)[C@H]1[C@@H]2C(=O)N1CCN(c2ncccn2)CC1	criterion not met
O=C1OCCC/C=C\[C@H]2OC34C=CCN(c5ccc6ccccc6c5)C(=O)[C@H]3N(CCCCCCO)C(=O)[C@@H]4C12 (stereo partly specified)	criterion met
COc1ccc([Si](C)(C)[C@H]2[C@H](CC(=O)N3Cc4ccccc4C[C@H]3CO)O[C@@]3(C(=O)N(Cc4ccc(N5CCC5=O)cc4)c4ccccc43)[C@@H]2C)cc1	criterion not met
COC(=O)[C@@]1(Cc2ccccc2)[C@H]2c3cc(C(=O)N4CCCC4)n(CC4CC4)c3C[C@H]2CN1C(=O)c1ccccc1	criterion not met
C=CCNC(=O)[C@@H]1[C@H]2C(=O)O[C@H](c3ccccc3)[C@H](c3ccccc3)N2[C@H](c2ccc(OCCO)cc2)[C@@]12C(=O)Nc1ccc(C#Cc3ccc(OC)cc3)cc12	criterion not met

Hello, I need to know if CC(C)(C)C(=O)N[C@@H](c1ccc(Cl)cc1)[C@]1(C)C[C@H]1C1CCCCC1 has measured z-score not below -0.5. Thanks!
criterion met
